Data credit: patent US20230014445A1

IC50 overview
tgt: human full length PIK3KA H1047R mutant (p110α/p85α complex) (Homo sapiens, UniProt P42336, H1047R)
Construct: Recombinant, catalytically active human full length PIK3KA Wild-type and H1047R mutant were purchased; 6xHis (N); purchased EMD Millipore Sigma 14-792M
Sequence (P42336 whole entry H1047R): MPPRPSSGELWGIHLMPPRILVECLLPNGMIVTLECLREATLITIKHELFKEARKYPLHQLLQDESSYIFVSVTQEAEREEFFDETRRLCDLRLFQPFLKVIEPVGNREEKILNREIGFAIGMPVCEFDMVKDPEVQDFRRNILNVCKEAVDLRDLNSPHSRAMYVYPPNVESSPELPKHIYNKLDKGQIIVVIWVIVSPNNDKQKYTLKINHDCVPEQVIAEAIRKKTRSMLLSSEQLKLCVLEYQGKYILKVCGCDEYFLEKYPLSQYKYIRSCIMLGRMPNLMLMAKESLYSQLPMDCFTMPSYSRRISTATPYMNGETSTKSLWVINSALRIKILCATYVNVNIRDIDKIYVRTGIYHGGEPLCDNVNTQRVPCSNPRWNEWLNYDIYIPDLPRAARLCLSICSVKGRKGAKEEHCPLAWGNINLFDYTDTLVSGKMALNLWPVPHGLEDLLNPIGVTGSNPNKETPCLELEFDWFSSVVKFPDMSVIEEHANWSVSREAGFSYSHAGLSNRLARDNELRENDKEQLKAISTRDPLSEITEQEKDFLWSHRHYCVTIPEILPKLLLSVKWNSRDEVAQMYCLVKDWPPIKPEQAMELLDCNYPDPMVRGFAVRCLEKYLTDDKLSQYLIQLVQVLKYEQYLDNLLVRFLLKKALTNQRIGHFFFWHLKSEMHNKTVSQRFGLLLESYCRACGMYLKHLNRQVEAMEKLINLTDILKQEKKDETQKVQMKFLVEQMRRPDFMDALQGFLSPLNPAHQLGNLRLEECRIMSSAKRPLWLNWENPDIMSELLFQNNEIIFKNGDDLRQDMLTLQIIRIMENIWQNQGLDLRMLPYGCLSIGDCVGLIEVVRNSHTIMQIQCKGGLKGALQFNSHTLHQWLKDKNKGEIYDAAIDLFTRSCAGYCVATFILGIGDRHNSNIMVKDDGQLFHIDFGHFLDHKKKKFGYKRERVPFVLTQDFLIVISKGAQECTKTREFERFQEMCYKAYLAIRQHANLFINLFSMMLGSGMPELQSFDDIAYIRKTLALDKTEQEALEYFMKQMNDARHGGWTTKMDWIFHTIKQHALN
Sequence (P27986 whole entry partner): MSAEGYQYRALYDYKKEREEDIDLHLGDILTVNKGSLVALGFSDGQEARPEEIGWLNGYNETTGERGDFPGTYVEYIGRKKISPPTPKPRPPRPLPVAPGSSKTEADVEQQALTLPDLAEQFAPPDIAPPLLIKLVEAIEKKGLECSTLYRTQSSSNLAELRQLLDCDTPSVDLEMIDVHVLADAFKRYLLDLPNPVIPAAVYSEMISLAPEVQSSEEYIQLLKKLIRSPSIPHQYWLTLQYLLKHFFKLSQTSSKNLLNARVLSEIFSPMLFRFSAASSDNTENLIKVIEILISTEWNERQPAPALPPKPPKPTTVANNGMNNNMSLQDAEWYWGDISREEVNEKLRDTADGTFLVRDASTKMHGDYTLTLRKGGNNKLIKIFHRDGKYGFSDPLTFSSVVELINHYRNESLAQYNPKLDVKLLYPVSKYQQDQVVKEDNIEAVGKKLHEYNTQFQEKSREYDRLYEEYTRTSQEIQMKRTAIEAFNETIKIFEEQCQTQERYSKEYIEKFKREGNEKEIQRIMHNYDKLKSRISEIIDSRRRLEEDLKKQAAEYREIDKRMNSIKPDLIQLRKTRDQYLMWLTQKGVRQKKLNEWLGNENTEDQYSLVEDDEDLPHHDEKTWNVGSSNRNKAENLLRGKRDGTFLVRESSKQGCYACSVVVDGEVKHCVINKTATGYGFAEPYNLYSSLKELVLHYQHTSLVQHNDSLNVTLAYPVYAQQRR
assay-method-text: PI3K-Alpha Kinase (PIK3CA) biochemical activity, H1047R mutant (ADP-Glo)
recorded-conditions: Soy PI lipid substrate, 20 uM ATP

Consider the following illustrative entries.
molecule="COc1cccc(-n2cc(-c3cc(=O)c4cc(C)cc(C(C)Nc5ccccc5C(=O)O)c4o3)cn2)c1 (single isomer, unassigned)" observed="< 500 nM"
molecule="COc1ccc(-c2cc(=O)c3cc(C)cc(C(C)Nc4ccccc4C(=O)O)c3o2)cn1 (stereo not drawn) [Example 12]" observed="< 500 nM"

Query: Recorded IC50 for Cc1cc(C(C)Nc2ccccc2C(=O)O)c2oc(-c3cnn(-c4ccc(C#N)cn4)c3)cc(=O)c2c1 (single isomer, unassigned) , please?
Reply: < 500 nM

Query: GET /values?readout=IC50&item= Cc1cc(C(C)Nc2ccccc2C(=O)O)c2oc(-c3cnn(-c4ccc5c(c4)OC(F)(F)O5)c3)cc(=O)c2c1 (single isomer, unassigned)
Reply: 500 to 1000 nM

Query: Tell me the measured IC50 of Cc1cc(C(C)Nc2ccccc2C(=O)O)c2oc(-c3cc(C)n[nH]3)cc(=O)c2c1 (single isomer, unassigned) , please.
Reply: < 500 nM
